Test system: OVCAR-3 ovarian
Assay: NCI tumour cell line growth inhibition, 48 h
READOUT_TYPE: TGI

stdin: Returns the measured TGI for the input compound. Input: `CCCc1cc(=O)oc2c(C=O)c(O)cc(O)c12`
stdout: 44.3 µM

stdin: Another compound: `O=C(/C=C/c1ccc(O)c(O)c1)OCc1ccccc1`
stdout: > 100 µM

stdin: Another compound: `CC1(C)C=Cc2c(cc3oc4ccc5c(c4c(=O)c3c2O)C=CC(C)(C)O5)O1`
stdout: > 100 µM

stdin: Another compound: CC(C)CC1C(=O)N2CCC[C@H]2C2(O)O[C@](NC(=O)C3C=C4c5cccc6[nH]c(Br)c(c56)C[C@H]4N(C)C3)(C(C)C)C(=O)N12 (stereo not given in full)
stdout: > 100 µM

stdin: Another compound: `O=C1Oc2ccccc2C(=O)/C1=C/N1C(=O)/C(=C/c2ccc3c(c2)OCO3)SC1=S`
stdout: 10.9 µM

stdin: Another compound: `O=C1c2sc(-c3ccc(F)cc3)cc2-n2cccc21`
stdout: > 100 µM

stdin: Another compound: `Cn1c2c(c3ccccc31)CCN1OCC=C[C@@H](C(=O)O)[C@@H]21`
stdout: > 100 µM

stdin: Another compound: `CN(C)CCCNC(=O)c1ccc2oc3cc4ccccc4c(=O)n3c2c1`
stdout: > 50 µM

stdin: Another compound: CC1C(=NO)C(C)C(c2ccccc2)N(N=O)C1c1ccccc1 (stereo not given)
stdout: 65.7 µM

stdin: Another compound: `COc1cccc(C(=O)Nc2c3ccccc3nc3ccccc23)c1OC`
stdout: > 100 µM

----------
Could you please report measured TGI for the items listed next?
System: SF-268 CNS
Test: NCI tumour cell line growth inhibition, 48 h

stdin: So what TGI did `Cc1ccc(-c2cc(-c3ccc(Cl)cc3)nc(/N=C3\C(=O)N(CN4CCOCC4)c4ccccc43)n2)cc1` get with SF-268 CNS?
stdout: > 100 µM

stdin: Another compound: C=C1C(=O)OC2/C=C(\C)C3OC3/C=C(/C(=O)OC)C(O)C(OC(=O)C3(C)OC3C)C12 (stereo not given)
stdout: 29.9 µM

stdin: Another compound: `[O-]c1c[n+](CCCC[n+]2cc([O-])on2)no1`
stdout: > 100 µM

stdin: Another compound: `CCCCC(C(=O)N/N=C/c1ccc([N+](=O)[O-])o1)C(=O)N/N=C/c1ccc([N+](=O)[O-])o1`
stdout: 20.3 µM

stdin: Another compound: `Cc1n[n+](CC(=O)c2ccccc2)c2sc(N)nn12`
stdout: > 100 µM

stdin: Another compound: `CCSC(SCC)c1cc2c(cc1Br)OCO2`
stdout: > 100 µM

stdin: Another compound: `Cc1nc2ccccn2c1NC(=O)NNC(=S)Nc1ccc(Br)cc1`
stdout: > 100 µM

stdin: Another compound: `C#Cc1c(C)c(/C=C/C(C)=C/C=C/C(C)=C/C(=O)OC)n(C)c1C`
stdout: > 100 µM

stdin: Another compound: O=C1Nc2cc(Cl)ccc2N=CC1NC(=O)C(c1ccccc1)c1ccccc1Cl (stereo not given)
stdout: > 100 µM

stdin: Another compound: `O=C1OC(c2ccccc2)=N/C1=C\c1ccc2ccccc2c1`
stdout: > 100 µM

----------
Test system: SK-MEL-28 melanoma
Test: NCI tumour cell line growth inhibition, 48 h
Could you please report measured TGI for the items listed next?

stdin: Returns the measured TGI for the input compound. Input: `Cc1cccc(-c2nn3c(c2-c2ccnc4ccc(C(N)=O)cc24)CCC3)n1`
stdout: > 100 µM

stdin: Another compound: `O=C(NO)c1ccc(OCc2cccc(Cl)c2)cc1`
stdout: 65.1 µM

stdin: Another compound: CCCCCCCCCCCCNC(=O)[C@H]1CSC(c2cc3ccccc3s2)N1 (stereo not given in full)
stdout: 1.39 µM

stdin: Another compound: `CCOC(=O)[C@@H]1OC(c2ccccc2)O[C@H]1C(=O)OCC`
stdout: > 100 µM

stdin: Another compound: C1CCC(OCc2nnn3c2CCC3)OC1 (stereo not given)
stdout: > 100 µM

stdin: Another compound: `O=c1oc2ccccc2n1P(=O)(n1c(=O)oc2ccccc21)n1c(=O)oc2ccccc21`
stdout: > 100 µM

stdin: Another compound: COc1ccc(N=Nc2c(C)c(C#N)c(=S)n(C3OC(COC(C)=O)C(OC(C)=O)C(OC(C)=O)C3OC(C)=O)c2C)cc1 (stereo not given)
stdout: > 100 µM

stdin: Another compound: `CN(C)C(=S)N1C(=S)N(c2ccccc2)C(=Nc2ccccc2)C1=Nc1ccccc1`
stdout: > 100 µM

stdin: Another compound: `O=c1c(-c2c(-c3ccccc3)oc3ccc(Cl)cc3c2=O)c(-c2ccccc2)oc2ccc(Cl)cc12`
stdout: > 100 µM

stdin: Another compound: `N=C(N)/N=C(\N)c1c(-c2cc(O)ccc2O)nc2sccn12`
stdout: 46 µM
